- Read-out: TIMP metallopeptidase inhibitor 1 (TIMP1), TIMP1 (gene 7076)
- measurementNotes: BSK_hDFCGF_TIMP1: BioMAP Diversity Plus: hDFCGF Assay for TIMP metallopeptidase inhibitor 1 (TIMP1) Biomarker Activity (AID 2283062)
- conditionsUsed: primary human foreskin fibroblasts; actives raise or lower the signal
Active and inactive are the calls of the source. Rule for the calls: active = hit-call score of the fitted dose curve at least 0.9, where 1 is the maximum; inactive = score below 0.9.
Form entry, call: pick from class 1 = active, class 0 = inactive

{"columns": ["molecule", "assignedClass"],
 "data": [
  ["CC(=O)OC/C=C(\\C)CCC=C(C)C", "class 0"],
  ["Cc1nc(C)nc(N2C[C@@H](C)N(c3ccnc([C@@H](C)O)n3)[C@@H](C)C2)n1", "class 0"],
  ["c1cc(-c2ccncc2)ccn1", "class 0"]
]}

Req: GET /call?item= Cc1ccc(C)c(C)c1 returns the recorded outcome of this test.
Resp: class 0

Req: GET /call?item= C=CCOC(=O)c1ccccc1C(=O)OCC=C returns the recorded outcome of this test.
Resp: class 0

Data origin: PubChem BioAssay (EPA / NIEHS)
